tested-target: ERα (wild type) (Homo sapiens)
assay: ERα (wild type) competition binding assay
measurement-parameters: recombinant ERα wild type, 3H-estradiol competition, n=3
Description: The purpose of the following ER competition binding assays is to determine the binding affinity of a test compound against ERα (wild type) and ERα (Y537S mutant) See Fanning et al., “Estrogen receptor alpha somatic mutations Y537S and D538G confer breast cancer endocrine resistance by stabilizing the activating function-2 binding conformation,” eLife 2016; 5:e12792. […]
property-measured: Ki (nM)

1. O=C(c1ccc(OCCN2CC(CF)C2)cc1)c1c(-c2ccc(C(F)(F)F)cc2F)cnc2cc(O)ccc12
3.78

###

assay: Rat oral bioavailability assay
Format: in vivo
measurement-parameters: plasma, Sprague-Dawley rats, IV 1 mg/kg, PO 10 mg/kg, read-out: oral bioavailability (% F)
property-measured: bioavailability (%)

1) O=C(c1ccc(OCCN2CC(CF)C2)cc1)c1c(-c2ccc(C(F)(F)F)cc2F)cnc2cc(O)ccc12
27

###

tested-target: ERα (Y537S mutant) (Homo sapiens, UniProt P03372, Y537S)
Sequence (P03372 1-595 Y537S): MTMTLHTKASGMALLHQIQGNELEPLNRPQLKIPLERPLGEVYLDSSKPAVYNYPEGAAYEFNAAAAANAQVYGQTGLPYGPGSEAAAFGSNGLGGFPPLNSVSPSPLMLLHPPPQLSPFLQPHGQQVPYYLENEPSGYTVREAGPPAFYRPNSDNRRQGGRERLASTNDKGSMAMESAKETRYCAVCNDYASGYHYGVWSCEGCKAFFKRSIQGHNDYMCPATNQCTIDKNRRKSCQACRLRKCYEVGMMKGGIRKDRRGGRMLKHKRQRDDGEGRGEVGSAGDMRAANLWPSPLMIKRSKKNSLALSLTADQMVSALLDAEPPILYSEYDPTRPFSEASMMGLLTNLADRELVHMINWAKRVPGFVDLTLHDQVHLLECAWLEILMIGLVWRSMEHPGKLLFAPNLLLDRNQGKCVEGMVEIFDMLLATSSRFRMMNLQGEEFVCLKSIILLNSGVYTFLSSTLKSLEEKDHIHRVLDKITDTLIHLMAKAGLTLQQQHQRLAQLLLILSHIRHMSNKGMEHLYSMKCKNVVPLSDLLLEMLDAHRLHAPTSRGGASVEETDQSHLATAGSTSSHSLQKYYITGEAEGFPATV
assay: ERα (Y537S mutant) competition binding assay
measurement-parameters: 3H-estradiol competition, n=3
pKi: −log10 of the molar value.
property-measured: pKi

1) O=C(c1ccc(OCCN2CC(CF)C2)cc1)c1c(-c2ccc(C(F)(F)F)cc2F)cnc2cc(O)ccc12
7.67

###

System: ERα receptor
assay: PRα inhibition (ERα functional antagonism) cell assay in MCF7 cells
Assay type: cell-based
measurement-parameters: Homo sapiens, pretreated with 0.47 nM estradiol, n=15, read-out: Relative IC50 (nM), PRα inhibition
property-measured: IC50 (nM)

1) O=C(c1ccc(OCCN2CC(CF)C2)cc1)c1c(-c2ccc(C(F)(F)F)cc2F)cnc2cc(O)ccc12
15.8
